Source of measurements: ChEMBL document CHEMBL1201862

Endpoint: GI50. System: HCT-15. Items follow.

Example results:
> print(dat)
                                   compound  endpoint.name  value.measured
1     CN(C)CCCNc1ccnc2cccc([N+](=O)[O-])c12           GI50         8.41 µM
2  CC(=O)NNc1nc(C)c(C(=O)/C=C/c2ccc(/C=C/C(=O)c3sc(NNC(C)=O)nc3C)cc2)s1           GI50        > 100 µM
3  COc1cc2c(cc1OC)C13CC[N+]4(C)CC5=CCOC6CC(=O)N2C1C6C5CC34[O-] (stereo not given)           GI50        > 100 µM

Please indicate recorded GI50 of N#CC1(C#N)NC(c2ccsc2)C(C#N)(C#N)NC1c1ccsc1 (stereo not given) measured with HCT-15. > 100 µM

Please indicate recorded GI50 of Cc1nn(C(=O)c2ccccc2O)c2c1C(c1ccc([N+](=O)[O-])cc1)SC(=N)N2 (stereo not given) measured with HCT-15. 5.14 µM

Please indicate recorded GI50 of CCOC(=O)C(Cc1ccc(O)cc1)Nc1nc(=O)c2c(=O)oc(Cl)cc2o1 (stereo not given) measured with HCT-15. 4.33 µM

Please indicate recorded GI50 of CC1=C(C)C2(C#N)C(=O)N3C(=NC(c4ccccc4)NC3c3ccccc3)C2(C#N)C(c2ccccc2)N1 (stereo not given) measured with HCT-15. > 100 µM
